Collected Km values appear next to each entry.
system: phospholipase A2; assay: Michaelis -Menten constant against phospholipase A2 was determined; type: ADME; settings: phospholipase A2 enzyme
measurementKind: Km (µM)

CCCCCCCCCC(=O)OCC(O)COP(=O)([O-])OCC[N+](C)(C)C (configuration not stated); 2300
CCCCCCCCCC(=O)OCC(COP(=O)([O-])OCC[N+](C)(C)C)OC(=O)CCCCCCCCC (configuration not stated); 2400
